Attribution: ChEMBL document CHEMBL4311944

- assay_target: Phosphatidylinositol 4,5-bisphosphate 3-kinase catalytic subunit alpha isoform (Homo sapiens, UniProt P42336)
- Sequence (P42336 whole entry, canonical isoform): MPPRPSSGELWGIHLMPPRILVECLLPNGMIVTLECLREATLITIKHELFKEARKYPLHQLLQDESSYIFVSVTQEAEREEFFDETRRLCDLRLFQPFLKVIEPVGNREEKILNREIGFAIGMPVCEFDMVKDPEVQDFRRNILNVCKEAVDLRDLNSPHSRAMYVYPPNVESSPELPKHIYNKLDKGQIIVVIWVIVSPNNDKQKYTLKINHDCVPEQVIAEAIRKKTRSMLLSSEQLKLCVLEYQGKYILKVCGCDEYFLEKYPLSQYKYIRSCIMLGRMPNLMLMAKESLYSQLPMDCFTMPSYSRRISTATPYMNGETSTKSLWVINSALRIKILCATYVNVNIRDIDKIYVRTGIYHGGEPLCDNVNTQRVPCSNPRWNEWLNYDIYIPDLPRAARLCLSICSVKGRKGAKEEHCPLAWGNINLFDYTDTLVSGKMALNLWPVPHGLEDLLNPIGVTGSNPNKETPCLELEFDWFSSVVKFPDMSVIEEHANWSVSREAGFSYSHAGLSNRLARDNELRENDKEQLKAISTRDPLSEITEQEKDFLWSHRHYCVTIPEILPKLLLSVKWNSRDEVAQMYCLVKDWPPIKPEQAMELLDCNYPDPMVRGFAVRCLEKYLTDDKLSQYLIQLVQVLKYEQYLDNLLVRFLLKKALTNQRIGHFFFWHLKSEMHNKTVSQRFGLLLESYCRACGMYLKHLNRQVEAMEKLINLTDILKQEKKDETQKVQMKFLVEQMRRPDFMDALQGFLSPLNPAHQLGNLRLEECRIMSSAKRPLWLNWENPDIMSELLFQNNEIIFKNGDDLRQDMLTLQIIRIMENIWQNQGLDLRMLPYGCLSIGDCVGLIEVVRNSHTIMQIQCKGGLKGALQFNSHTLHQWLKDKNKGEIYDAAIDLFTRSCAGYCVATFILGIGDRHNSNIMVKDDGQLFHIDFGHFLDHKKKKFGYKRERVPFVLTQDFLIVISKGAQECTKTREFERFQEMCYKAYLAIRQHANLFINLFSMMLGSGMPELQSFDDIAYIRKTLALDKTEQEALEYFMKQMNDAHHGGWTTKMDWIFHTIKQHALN
parameter: IC50

These solved cases illustrate the format of a correct answer.
# sample_smiles, recorded_value
rows = [
    ("CNCC(=O)Nc1ccc(-c2nc(CS(C)(=O)=O)cc([C@]34CCOC[C@H]3C4)n2)cc1", "> 31.6 µM"),
    ("CCNC(=O)Nc1ccc(-c2nccc([C@@]34CCOC[C@@H]3C4)n2)cc1", "> 31.6 µM"),
]

QUERY: For the molecule CNCC(=O)Nc1ccc(-c2nc(CS(C)(=O)=O)cc([C@@]34CCOC[C@@H]3C4)n2)cc1 , give its reported IC50.
RESULT: > 31.6 µM
